meta.source: PubChem BioAssay (NCI)

- Test system: MDA-MB-468 breast
- Protocol Summary: NCI tumour cell line growth inhibition, 48 h
# reported GI50; entries follow

C=C1C(=O)O[C@H]2[C@H]1CC/C(C=Nc1c(N)cc(C(F)(F)F)cc1Br)=C\CC[C@@]1(C)O[C@@H]21 ... 1.88 µM

Q: Can you share its GI50? I mean this compound: OC(c1cc2ccc(C(F)(F)F)cc2c2cc(C(F)(F)F)ccc12)C1CCCCN1 (stereo unspecified)
A: 1.6 µM

Q: What measured GI50 goes with CC1(c2ccccc2)NC(=O)N(CC(=O)Nc2ccc(C(=O)/C=C/c3ccccc3)cc2)C1=O (stereo unspecified) ?
A: 5.7 µM

Q: Value lookup for GI50; key = Cn1cc(C2=C(c3cn(C4CCN(Cc5ccccn5)CC4)c4ccccc34)C(=O)NC2=O)c2ccccc21
A: 2.08 µM

Q: I have this compound here, C/C(=N\NC(=S)Nc1ccc(Br)cc1)c1cc2ccccc2oc1=O , and I need its recorded GI50.
A: 1.22 µM

Q: // lookup GI50 for O=S(=O)(NCCCNc1nccc(-c2c(-c3ccc(F)cc3)nc3sccn23)n1)c1ccc2ccccc2c1
A: 3.87 µM

Q: Requested read-out: GI50. Entry: O=c1oc2ccc(I)cc2c(=O)n1-c1ccc(Cl)cc1F
A: 2.11 µM

Q: Quick one: GI50 of CNC(=O)c1nn(C)c2c1C(C)(C)Cc1cnc(Nc3ccc(N4CCN(C)CC4)cc3)nc1-2 ?
A: 0.813 µM

Q: GI50 lookup needed for CN(C)C(=O)O[C@H]1CN[C@H](C#Cc2cc3ncnc(Nc4ccc(OCc5cccc(F)c5)c(Cl)c4)c3s2)C1 , thanks.
A: 0.595 µM

Q: Endpoint output: GI50 of C(=N\Nc1nnn(Cc2ccccc2)n1)/c1ccccc1 . Value?
A: 1.48 µM

Q: Request the reported GI50 associated with CCOc1ccc(-c2nnc(C3CC(NC(=O)c4cccc5nccnc45)C3)n2-c2ccccc2F)nc1 (stereo unspecified)
A: 10 µM
